System: HCT 116 (colon) cells
Test: Anti-cancer screen (MTT), HCT 116
Assay type: cell-based
Details: Homo sapiens, HCT-116; HCT116, 48 hours, MTT; read-out: Cell growth inhibition HCT116 (Colon) LC50
measurement type: CC50 (µM)
Give your result in µM as a bare value.

Nc1ccccc1NC(=O)c1ccc(CNC(=O)/C(=C/c2ccc(F)c(C(F)(F)F)c2)c2ccc(C(F)(F)F)cc2)cc1	77

// switching to the query compound
Please report CC50 for the following compound: CSc1ccc(/C=C(/C(=O)NCc2ccc(C(=O)NO)cc2)c2cccnc2)cc1
48

---

Tested on: U251 (glioma) cells
Assay: Anti-cancer screen (MTT), U251
Assay type: cell-based
Details: Homo sapiens, U-251; U251, 48 hours, MTT; read-out: Cell growth inhibition U251 (Glioma) TGI
# IC (TGI) >= 20 µM gives 1.0, anything below gives 0.0

Below, 2 compounds whose answers are already recorded.
COc1ccc(/C=C(/C(=O)NCc2ccc(/C=C/C(=O)NO)cc2)c2ccc(F)cc2)cc1OC	0.0
COc1ccc(/C(=C\c2ccc(SC)cc2)C(=O)NCc2ccc(C(=O)NO)cc2)cc1	0.0

Given COC(=O)c1ccc(/C=C(/C(=O)NCc2ccc(C(=O)Nc3ccccc3N)cc2)c2ccc(OC)cc2)cc1 , state whether its IC (TGI) is at least 20 µM.
1.0

Exam item: decide whether the reported IC (TGI) for CSc1ccc(/C=C(/C(=O)NCCCCCC(=O)NO)c2ccccc2F)cc1 is at least 20 µM.
0.0

Exam item: decide whether the reported IC (TGI) for O=C(CCCCCNC(=O)NC(=O)/C(=C/c1ccccc1)c1ccccc1)NO is at least 20 µM.
1.0

Is IC (TGI) at least 20 µM? Consider CSc1ccc(/C=C(/C(=O)NCc2ccc(C(=O)Nc3ccccc3N)cc2)c2ccccc2Cl)cc1
1.0

Answer whether IC (TGI) of COc1ccc(/C=C(/C(=O)NCc2ccc(C(=O)Nc3ccccc3N)cc2)c2cccs2)cc1OC is greater than or equal to 20 µM.
0.0

Quick check, IC (TGI) >= 20 µM? CSc1ccc(/C=C(/C(=O)NCc2ccc(C(=O)NO)cc2)c2ccc(F)cc2)cc1
1.0

---

Tested on: acetylated Tubulin
Assay: Tubulin acetylation, sandwich ELISA in HCT116 lysate
Format: cell-based
Settings: 10 μM, HCT116, 4 hours
measurement type: Tubulin acetylation (Fold increase)
Your answer should be a plain number; it is taken to be in Fold increase.

Specify Tubulin acetylation (Fold increase) for COc1ccc(/C=C(/C(=O)NCc2ccc(C(=O)Nc3ccccc3N)cc2)c2ccccc2F)cc1OC [Compound 28] and stop.
6.2

Return value of Tubulin acetylation (Fold increase) for input COc1ccc(/C=C(/C(=O)NCc2ccc(C(=O)Nc3ccccc3N)cc2)c2ccc(F)cc2)cc1OC [Compound 19] , no commentary.
4.4

Give reported Tubulin acetylation (Fold increase) value for CSc1ccc(/C=C(/C(=O)NCc2ccc(C(=O)NO)cc2)c2cccnc2)cc1 [Compound 55]
11

Return Tubulin acetylation (Fold increase) for the following compound: COc1ccc(/C=C(/C(=O)NCc2ccc(C(=O)Nc3ccccc3N)cc2)c2ccccc2)cc1OC [Compound 31]
2.1

---

System: NCIH460 (lung) cells
Test: Anti-cancer screen (MTT), NCIH460
Format: cell-based
Conditions: Homo sapiens, NCI-H460; NCIH460, 48 hours, MTT; read-out: Cell growth inhibition NCIH460 (Lung) LC50
As shown below, each of these compounds has a reported LC50 value.

// solved cases for LC50 follow
COc1ccc(/C=C(/C(=O)NCc2ccc(/C=C/C(=O)NO)cc2)c2ccccc2F)cc1OC [Compound 78]	> 100 µM
CSc1ccc(/C=C(/C(=O)NCc2ccc(C(=O)Nc3ccccc3N)cc2)c2ccc(C(F)(F)F)cc2)cc1 [Compound 21]	78 µM
CSc1ccc(/C=C(/C(=O)NCc2ccc(C(=O)NO)cc2)c2ccc(F)cc2)cc1 [Compound 52]	82 µM

For NCIH460 (lung) cells, give the measured LC50 of the entry O=C(NCc1ccc(C(=O)NO)cc1)/C(=C/c1ccc(F)cc1)c1ccc(C(F)(F)F)cc1 [Compound 50]
92 µM

State LC50 on NCIH460 (lung) cells. Entry: COc1ccc(/C=C(/C(=O)NCc2ccc(C(=O)Nc3ccccc3N)cc2)c2cccs2)cc1OC [Compound 37]
100 µM

Report LC50 on NCIH460 (lung) cells for this entry: COc1ccc(/C=C(/C(=O)NCc2ccc(C(=O)Nc3ccccc3N)cc2)c2ccc(F)cc2)cc1OC [Compound 19]
70 µM

Name the value of LC50 reported for COC(=O)c1ccc(/C=C(/C(=O)NCc2ccc(C(=O)Nc3ccccc3N)cc2)c2ccc(OC)cc2)cc1 [Compound 35] when tested on NCIH460 (lung) cells.
> 100 µM

---

System: acetylated Tubulin
Test: Tubulin acetylation, sandwich ELISA in HCT116 lysate
Type: cell-based
Details: 1 μM, HCT116, 4 hours
measurement type: Tubulin acetylation (Fold increase)
Report the value in Fold increase with no unit label.

Give the reported value of Tubulin acetylation (Fold increase) for this record: COc1ccc(/C=C(/C(=O)NCc2ccc(C(=O)Nc3ccccc3N)cc2)c2ccccc2)cc1OC
1.2

Give Tubulin acetylation (Fold increase) for the following compound: CSc1ccc(/C=C(/C(=O)NCc2ccc(C(=O)NO)cc2)c2cccnc2)cc1
10.4

Please report the measured Tubulin acetylation (Fold increase) for COc1ccc(/C=C(/C(=O)NCc2ccc(C(=O)Nc3ccccc3N)cc2)c2ccccc2F)cc1OC
1.9

Please list Tubulin acetylation (Fold increase) recorded for the compound COc1ccc(/C=C(/C(=O)NCc2ccc(C(=O)Nc3ccccc3N)cc2)c2ccc(F)cc2)cc1OC
1.9

---

Entries and their measured IC (TGI) follow.
Test system: U251 (glioma) cells
Experiment: Anti-cancer screen (MTT), U251
Format: cell-based
Settings: Homo sapiens, U-251; U251, 48 hours, MTT; read-out: Cell growth inhibition U251 (Glioma) TGI
Experimental: Experimental drugs were screened for anti-cancer activity in three cell lines using five concentrations for each compound. The cell lines —HCT 116 (colon), NCIH460 (lung) and U251 (glioma) were maintained in DMEM containing 10% fetal bovine serum. 96-well microtiter plates are inoculated with cells in 100 μL of cell suspension (5×10^4 cells/mL) for 24 hours at 37° C., 5% CO2, 95% air and 100% relative humidity. […]
Your answer should be a plain number; it is taken to be in µM.

Sample records with IC (TGI):
COc1ccc(/C=C(/C(=O)NCc2ccc(C(=O)Nc3ccccc3N)cc2)c2ccccc2)c(OC)c1 [Compound 39]	100
COc1ccc(/C=C(/C(=O)NCc2ccc(/C=C/C(=O)NO)cc2)c2ccccc2F)cc1OC [Compound 78]	8

Identify measured IC (TGI) associated with COc1cc(/C=C(/C(=O)NCCCCCC(=O)NO)c2ccc(F)cc2)ccc1F [Compound 91]
30

Consider the molecule COC(=O)c1ccc(/C=C(/C(=O)NCc2ccc(C(=O)Nc3ccccc3N)cc2)c2ccccc2F)cc1 [Compound 34] . State its measured IC (TGI).
23

Indicate its recorded IC (TGI); the molecule in question is Nc1ccccc1NC(=O)c1ccc(CNC(=O)/C(=C/c2ccc(F)c(C(F)(F)F)c2)c2ccc(C(F)(F)F)cc2)cc1 [Compound 4]
41

---

Test system: HCT 116 (colon) cells
Assay: Anti-cancer screen (MTT), HCT 116
Format: cell-based
Conditions: Homo sapiens, HCT-116; HCT116, 48 hours, MTT; read-out: Cell growth inhibition HCT116 (Colon) LC50
measurement type: CC50

COc1ccc(/C(=C\c2ccc(SC)cc2)C(=O)NCCCCCC(=O)NO)cc1 [Compound 92]	87 µM
Nc1ccccc1NC(=O)c1ccc(CNC(=O)/C(=C/c2ccnc3ccccc23)c2ccc(F)cc2)cc1 [Compound 22]	> 100 µM
COc1ccc(/C=C(/C(=O)NCc2ccc(C(=O)NO)cc2)c2ccc(F)cc2)cc1 [Compound 53]	51 µM
O=C(CCCCCNC(=O)/C(=C/C1CC1)c1ccc(F)cc1)NO [Compound 93]	> 100 µM
O=C(NCc1ccc(C(=O)NO)cc1)/C(=C/c1c(F)cc(F)cc1F)c1ccc(F)cc1 [Compound 54]	59 µM

Return CC50 for the following compound: COc1ccc(/C=C(/C(=O)NCc2ccc(/C=C/C(=O)NO)cc2)c2ccccc2F)cc1OC [Compound 78]
> 100 µM

Determine its reported CC50: Nc1ccccc1NC(=O)c1ccc(CNC(=O)/C(=C/c2ccc(F)cc2Cl)c2ccccc2)cc1 [Compound 9]
> 100 µM

Kindly indicate its recorded CC50. Item: COC(=O)c1ccc(/C=C(/C(=O)NCc2ccc(C(=O)Nc3ccccc3N)cc2)c2ccccc2F)cc1 [Compound 34]
> 100 µM

---

System: HCT 116 (colon) cells
Test: Anti-cancer screen (MTT), HCT 116
Assay type: cell-based
Settings: Homo sapiens, HCT-116; HCT116, 48 hours, MTT; read-out: Cell growth inhibition HCT116 (Colon) LC50
Flag rule - CC50 less than 80 µM flags true; the remaining entries get false.

Recorded results for 5 compounds are shown here.
Nc1ccccc1NC(=O)c1ccc(CNC(=O)/C(=C/c2ccc(F)c(F)c2)c2ccc(F)cc2)cc1	true
COc1ccc(/C=C(/C(=O)NCc2ccc(C(=O)Nc3ccccc3N)cc2)c2ccc(C)cc2)cc1OC	false
CSc1ccc(/C=C(/C(=O)NCc2ccc(C(=O)Nc3ccccc3N)cc2)c2ccc(C)cc2)cc1	false
CSc1ccc(/C=C(/C(=O)NCc2ccc(C(=O)NO)cc2)c2ccccc2Cl)cc1	false
Nc1ccccc1NC(=O)c1ccc(CNC(=O)/C(=C/c2ccc(F)cc2)c2ccccc2)cc1	true

In the record for COc1ccc(/C(=C\c2ccc(F)cc2)C(=O)NCc2ccc(C(=O)NO)cc2)cc1 , is CC50 less than 80 µM?
true

Please indicate whether the reported CC50 of CSc1ccc(/C=C(/C(=O)NCc2ccc(C(=O)Nc3ccccc3N)cc2)c2cccs2)cc1 is strictly below 80 µM.
false
